Listed here: compounds with reported Ki for UniProt:Q9Y233.
Sequence (Q9Y233 whole entry): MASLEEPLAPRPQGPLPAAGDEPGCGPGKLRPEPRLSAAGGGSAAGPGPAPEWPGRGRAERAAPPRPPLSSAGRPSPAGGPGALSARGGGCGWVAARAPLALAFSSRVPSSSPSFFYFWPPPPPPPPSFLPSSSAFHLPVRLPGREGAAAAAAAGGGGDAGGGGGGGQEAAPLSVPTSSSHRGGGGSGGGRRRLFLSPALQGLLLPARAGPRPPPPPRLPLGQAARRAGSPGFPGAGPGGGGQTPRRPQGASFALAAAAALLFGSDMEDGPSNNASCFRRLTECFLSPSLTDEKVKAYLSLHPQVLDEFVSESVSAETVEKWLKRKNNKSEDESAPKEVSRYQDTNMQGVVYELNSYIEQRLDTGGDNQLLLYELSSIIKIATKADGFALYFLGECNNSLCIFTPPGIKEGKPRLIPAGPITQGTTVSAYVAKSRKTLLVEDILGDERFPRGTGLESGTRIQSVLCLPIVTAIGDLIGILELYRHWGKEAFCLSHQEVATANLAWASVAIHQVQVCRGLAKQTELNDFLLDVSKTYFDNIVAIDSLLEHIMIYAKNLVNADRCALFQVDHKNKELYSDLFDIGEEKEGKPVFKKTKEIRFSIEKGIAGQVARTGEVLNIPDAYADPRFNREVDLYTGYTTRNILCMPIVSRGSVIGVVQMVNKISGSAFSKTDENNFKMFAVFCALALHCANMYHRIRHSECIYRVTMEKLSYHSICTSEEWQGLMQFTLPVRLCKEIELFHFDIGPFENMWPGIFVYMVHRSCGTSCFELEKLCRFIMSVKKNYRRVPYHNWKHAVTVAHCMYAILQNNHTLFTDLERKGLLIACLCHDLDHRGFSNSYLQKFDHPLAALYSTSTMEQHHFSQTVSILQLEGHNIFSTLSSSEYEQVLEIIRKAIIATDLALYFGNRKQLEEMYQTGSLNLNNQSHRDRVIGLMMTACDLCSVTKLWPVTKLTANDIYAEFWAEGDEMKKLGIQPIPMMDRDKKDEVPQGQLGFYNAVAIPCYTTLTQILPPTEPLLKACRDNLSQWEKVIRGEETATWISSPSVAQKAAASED
Hi! Could you send only the number? It should be in nM, unit omitted.

COc1ccc(COc2cc(-n3nc(C)nc3Cc3ccc(OC)c(OC)c3)nc(C)n2)nc1    3.3

Here is the next item to consider.
GET /value?item= Cc1nc(C2CC2c2nc3ccc(F)cc3[nH]2)cc(-n2nc(C)nc2C)n1 (configuration not stated) &field=Ki returns 14.2
